Overview of reported IC50 across a group of molecules:
System: HCT116-MTAP-knockout (−/−) cell strain
PROTOCOL_SUMMARY: Tumor cell proliferation inhibition assay (CellTiter-Glo), HCT116-MTAP-knockout (-/-)
Format: cell-based
ASSAY_CONTEXT: Homo sapiens, 120 h, HCT116-MTAP-knockout (−/−) cells, 5-day treatment, IC50 score, read-out: Tumor cell 5-day relative growth inhibition (HCT116-MTAP−/−) (nM), score

Completed entries (count: 10):
Cn1cc2c(n1)c(=O)n(-c1cccnc1)c1cc(Cl)ccc21; < 500 nM
Cn1cc2c(n1)c(=O)n(-c1cccc3[nH]ncc13)c1cc(Cl)c(C#N)cc21; < 500 nM
Cn1cc2c(n1)c(=O)n(-c1cccc3[nH]ncc13)c1cc(Cl)c(F)cc21; < 500 nM
O=c1c2n[nH]cc2c2ccc(C(F)(F)F)nc2n1-c1cccc2[nH]ncc12; < 500 nM
Cn1cc2c(n1)c(=O)n(-c1cccnc1C1CC1)c1cc(Cl)c(F)cc21; < 500 nM
O=c1c2nn(CC3CC3)cc2c2ccc(C(F)(F)F)nc2n1-c1cccnc1; < 500 nM
O=c1c2nn(C(F)F)cc2c2cc(F)c(Cl)cc2n1-c1cccnc1C1CC1; 500 to 2000 nM
Cn1cnc2c(=O)n(-c3cccnc3C3CC3)c3cc(Cl)c(F)cc3c21; < 500 nM
Cn1cc2c(n1)c(=O)n(-c1cccnc1C(F)(F)F)c1cc(Cl)ccc21; < 500 nM
Cn1cc2c(n1)c(=O)n(-c1cccnc1C1CC1)c1nc(C3CC3)c(F)cc21; < 500 nM

Could you tell me which IC50 is on file for Cn1cnc2c(=O)n(-c3cccnc3C(F)(F)F)c3cc(Cl)c(F)cc3c21 ?
500 to 2000 nM

Similarly, Cn1cnc2c(=O)n(-c3cccc4[nH]ncc34)c3cc(Cl)c(C#N)cc3c21 ?
≥ 2000 nM

Also, O=c1c2nn(C3CC3)cc2c2ccc(C(F)(F)F)nc2n1-c1cccnc1 please.
< 500 nM

---

Test system: SDMA in human colon cancer cell line HCT116
PROTOCOL_SUMMARY: Cell symmetric dimethylarginine (SDMA) test, In-cell Western, HCT116 (MTAP wild-type)
Assay type: cell-based
ASSAY_CONTEXT: Homo sapiens, HCT-116, 96 h, read-out: Cell 96 h SDMA inhibition (HCT116-MTAP+/+)
MEASUREMENT_LABEL: log10 IC50 (log10 of the value in µM)
Hey, these are logged values: log10 of IC50, µM being the unit before logging.

Known results for compounds:
COc1cc(Cl)cc2c1c1cn(C)nc1c(=O)n2-c1cccnc1; 0.12
O=c1c2nn(Cc3cccnc3)cc2c2ccc(Cl)cc2n1-c1cccnc1; 1.67
CCn1nc2c(=O)n(-c3cccnc3)c3cc(Cl)ccc3c2c1C; -0.20
CCn1cc2c(n1)c(=O)n(-c1cccnc1C)c1cc(Cl)ccc21; -0.64
Cn1cc2c(n1)c(=O)n(-c1cccnc1)c1cc(Cl)cc(F)c21; 0.34

// returns reported log10 IC50 for input Cc1cc(-n2c(=O)c3nn(C)cc3c3ccc(Cl)cc32)n(C)n1
0.84

And what about the compound Cc1ccc(-n2c(=O)c3nn(C)cc3c3ccc(C(F)(F)F)nc32)cn1 ?
-0.23

Now try Cn1cc2c(n1)c(=O)n(-c1cccnc1)c1nc(C3CC3)ccc21 .
0.10

Lookup O=c1c2nn(C3CCOC3)cc2c2ccc(C(F)(F)F)nc2n1-c1cccnc1 (stereo not shown)
0.08

// same read-out, input: Cc1ncccc1-n1c(=O)c2nn(C)cc2c2ccc(C(F)(F)F)nc21 (single isomer, unassigned) [Compound B180]
-1.00

How about this compound: CCn1cc2c(n1)c(=O)n(-c1cccc(C#N)c1)c1cc(Cl)ccc21
0.37

Again, but for Cc1ncccc1-n1c(=O)c2n[nH]cc2c2ccc(C(F)(F)F)nc21
-0.80

Cn1cc2c(n1)c(=O)n(-c1cccnc1)c1cc(OC(F)(F)F)ccc21 ?
0.31

Same read-out for Cn1cc2c(n1)c(=O)n(-c1cnccn1)c1nc(C(F)(F)F)ccc21 ?
0.48

Quick one: O=c1c2[nH]ncc2c2ccc(Cl)cc2n1-c1cccnc1
0.45

What about this compound? CCn1cc2c(n1)c(=O)n(-c1cccnc1C(F)(F)F)c1cc(Cl)ccc21
0.35

Entry Cn1cc2c(n1)c(=O)n(-c1cccnc1)c1cc(Cl)ccc21 please
0.15

Continue with COc1ncccc1-n1c(=O)c2nn(C)cc2c2ccc(C(F)(F)F)nc21
-0.20

Now try Cn1cc2c(n1)c(=O)n(-c1cccc(O)c1)c1nc(C(F)(F)F)ccc21 .
0.01

Next compound: Cc1c2c(nn1C)c(=O)n(-c1cccnc1)c1nc(C(F)(F)F)ccc21
-0.25

Repeat with Cn1cc2c(n1)c(=O)n(-c1cccnc1)c1cc(C3CC3)ccc21
0.19

Please answer likewise for Cn1ccc(Cn2cc3c(n2)c(=O)n(-c2cccnc2)c2cc(Cl)ccc32)n1
0.71

Consider next the compound COc1ccc(Cn2cc3c(n2)c(=O)n(-c2cccnc2)c2cc(Cl)ccc32)cc1 in the same way.
-0.47

Entry Cc1ncccc1-n1c(=O)c2nn(C)cc2c2ccc(C3CC3)cc21 please
-0.58

Try the compound Cc1ncccc1-n1c(=O)c2nn(C3CC3)cc2c2ccc(Cl)cc21
-0.04
